Hey, just so you know, these numbers are from ChEMBL document CHEMBL1201862.

System: HOP-92
Test Name: NCI tumour cell line growth inhibition, 48 h
Calls of active or inactive are those of the source. No stated cut-off is given here; in the data, active = GI50 up to about 1.1 µM and inactive = higher.
Outcome codes: active, inactive

[
  {
    "Compound": "CN(C)Cc1cc(/N=N/c2ccc(Cl)cc2)ccc1O",
    "Label Value": "inactive"
  },
  {
    "Compound": "NC(S)=Nc1cc(Cl)ccc1Cl",
    "Label Value": "inactive"
  },
  {
    "Compound": "O=C(O)C(Sc1ccc(Cl)cc1)Sc1ccc(Cl)cc1",
    "Label Value": "inactive"
  },
  {
    "Compound": "O=c1[nH]cc(-c2c[nH]c3ccccc23)nc1-c1c[nH]c2ccccc12",
    "Label Value": "inactive"
  },
  {
    "Compound": "O=C(O)c1ccccc1NS(=O)(=O)c1ccc(Cl)cc1",
    "Label Value": "inactive"
  },
  {
    "Compound": "O=C1CC(=O)n2cnc3cccc(c32)N1",
    "Label Value": "inactive"
  },
  {
    "Compound": "NC(=O)CCSC(CC(=O)c1ccc(Cl)cc1)c1ccc(Cl)cc1 (configuration not stated)",
    "Label Value": "inactive"
  },
  {
    "Compound": "O=C(Cc1ccccc1F)NC1=C(Cl)C(=O)c2ccccc2C1=O",
    "Label Value": "active"
  },
  {
    "Compound": "Nc1ccc2c(c1)CC1c3ccccc3C(C2)c2ccccc21",
    "Label Value": "inactive"
  },
  {
    "Compound": "COc1ccc2nc3cc(Cl)ccc3c(Sc3ccccc3[N+](=O)[O-])c2c1",
    "Label Value": "inactive"
  },
  {
    "Compound": "COC(=O)C1[C@H](C(=O)OC)C1(Br)CBr (some centres not stated)",
    "Label Value": "inactive"
  },
  {
    "Compound": "CCCCOP(=O)(OCCCC)/C(C#N)=C/c1ccco1",
    "Label Value": "inactive"
  }
]
